From: PubChem BioAssay AID330

- Test system: P388 leukemia ip, CD2F1 mice, survival T/C
- PROCEDURE DETAILS: NCI In Vivo Anticancer Drug Screen. Data for tumor model P388 Leukemia (intraperitoneal) in CD2F1 (CDF1) mice
- STATED CONDITIONS: endpoint: median survival time; dose: 200.0 mg/kg/injection; schedule: Q01DX009 (ip); vehicle: Klucel (hydroxypropylcellulose) (HPC); higher = longer survival
Inconclusive results and toxic doses are left out.
REPORTED ENDPOINT: T/C

Answered examples (8):
>>> df
                                   compound            result
0  COc1ccccc1C1CC(c2ccccc2)=Nc2ccccc2S1 (centres undefined)  101 % of control
1  Cc1cc(C2(c3cc(C)c(O)c(C)c3)OC(=O)c3ccccc32)cc(C)c1O  103 % of control
2         COc1cc([N+](=O)[O-])c2nccc(C)c2c1  104 % of control
3       O=S(=O)(Cc1ccccc1)/N=C\c1ccc(Cl)cc1  104 % of control
4  O=C(O)C1CCC(=O)N1Cc1ccccc1 (centres undefined)  107 % of control
5         Cc1ncc([N+](=O)[O-])n1Cc1nnc(N)s1  108 % of control
6             S=C(N/N=C/c1ccccn1)SCc1ccccc1  100 % of control
7  COc1ccc(Cl)cc1C(=O)NCCc1ccc(CCC(=O)O)cc1  102 % of control

Kindly consider the entry below.
Looking for the measured T/C of CCCCCCCCC(=O)c1c(OC)oc(/C=N/NC(N)=S)cc1=O , can you help? 91 % of control

###

Listing of recorded T/C by entry.
- Test system: P388 leukemia ip, CD2F1 mice, survival T/C
- PROCEDURE DETAILS: NCI In Vivo Anticancer Drug Screen. Data for tumor model P388 Leukemia (intraperitoneal) in CD2F1 (CDF1) mice
- STATED CONDITIONS: endpoint: median survival time; dose: 200.0 mg/kg/injection; schedule: Q01DX001 (ip); vehicle: saline with Tween-80; higher = longer survival
Inconclusive results and toxic doses are left out.

Answered examples (6):
                                   molecule  reported_endpoint            result
0                    CS(C)(=O)=Nc1ccc(F)cc1                T/C   99 % of control
1  C/C(=N\SC(c1ccccc1)(c1ccccc1)c1ccccc1)c1ccccc1                T/C   88 % of control
2  O=C(NCCCCOc1ccc([N+](=O)[O-])cc1Cl)NC1CCCCC1                T/C  100 % of control
3  COc1ccc2cc1Oc1ccc(cc1)CC1c3cc(OC)c(cc3CCN1C)Oc1c(OC)c(OC)cc3c1C(C2)N(C)CC3 (stereo unspecified)                T/C   86 % of control
4  CCCC1(C)COC(c2ccc(OC)cc2)OC1 (stereo unspecified)                T/C  102 % of control
5  Cc1cc(NC(=O)C(=O)CC(=O)c2ccc(Cl)c(Cl)c2)no1                T/C  108 % of control

Looking for the measured T/C of O=C1CCCC(CCc2ccccc2)O1 (stereo unspecified) , can you help? 101 % of control

Now consider C=C(C)c1c2c(SC)ccc(SC)c2cc2c(SC)ccc(SC)c12 . 98 % of control

Now consider CCCCCCCCC1SC1CCCCCCCCOC(=O)CCCCCCCC1SC1CCCCCCCC (stereo unspecified) . 95 % of control

Now consider CC(C(=O)O)C1(C(=O)O)CCCCCC1 (stereo unspecified) . 93 % of control

Now consider c1ccc(P2(c3ccccc3)(c3ccccc3)C3C4C5C6C4C2C6C53)cc1 (stereo unspecified) . 113 % of control
